Origin of the recorded values: ChEMBL document CHEMBL4316598

# Tested on: FaDu
# Run description: Cytotoxicity against human FADU cells assessed as reduction in cell viability after 4 hrs by MTT assay
# Type: functional, cell-based
pIC50: −log10 of the molar value.
Reported endpoint: pIC50

> print(dat)
                            smiles.notation  reported.endpoint  readout.value
1  Cn1cc(/C=N\NC(=O)c2cn(C)c3ccc(Br)cc23)c2ccccc21              pIC50           5.02
2  COc1cccc2c1C(=O)c1c(O)c3c(c(O)c1C2=O)C[C@@](O)(C(=O)CO)C[C@@H]3O[C@H]1C[C@H](N)[C@H](O)[C@H](C)O1              pIC50           6.17

* * *

We begin with a simple list: items and their reported pIC50.
# Test system: HeLa
# Run description: Cytotoxicity against human HeLa cells assessed as reduction in cell viability after 4 hrs by MTT assay
# Type: functional, cell-based
# Condition: Homo sapiens, HeLa, 4 h; read-out: IC50
pIC50: −log10 of the molar value.
Reported endpoint: pIC50

> print(dat)
                            smiles.notation  readout.value
1  Cn1cc(/C=N\NC(=O)c2cn(C)c3ccc(Br)cc23)c2ccccc21           5.77
2  COc1ccc2[nH]cc(/C=N\NC(=O)c3cn(C)c4ccc(Br)cc34)c2c1           4.85

* * *

Catalogue of pIC50 values
# Test system: HEK293
# Run description: Cytotoxicity against HEK293 cells assessed as reduction in cell viability after 4 hrs by MTT assay
# Format: cell-based, Homo sapiens
# Condition: Homo sapiens, HEK293, 4 h; read-out: IC50
pIC50: −log10 of the molar value.
Reported endpoint: pIC50

> print(dat)
                            smiles.notation  target.of.assay  readout.value
1  COc1cccc2c1C(=O)c1c(O)c3c(c(O)c1C2=O)C[C@@](O)(C(=O)CO)C[C@@H]3O[C@H]1C[C@H](N)[C@H](O)[C@H](C)O1           HEK293         < 3.70
2  Cn1cc(/C=N\NC(=O)c2cn(C)c3ccc(Br)cc23)c2ccccc21           HEK293         < 3.70

* * *

# reported IC50; entries follow
# Test system: A549
# Run description: Cytotoxicity against human A549 cells assessed as reduction in cell viability after 4 hrs by MTT assay
# Type: functional, cell-based
# Condition: Homo sapiens, A549, 4 h; read-out: IC50
Reported endpoint: IC50 (µM)

> print(dat)
                            smiles.notation  unit.info  readout.value
1  Cn1cc(/C=N\NC(=O)c2cn(C)c3ccccc23)c2ccccc21         µM             19
2  COc1ccc2[nH]cc(/C=N\NC(=O)c3cn(C)c4ccc(Br)cc34)c2c1         µM           12.8
